Test system: genotype 1a transient HCV replicon, NS3/4a protease inhibitor resistant variant R155K, in Huh-7-derived cells
assay-summary: Transient-transfected HCV replicon EC50, genotype 1a R155K
Format: cell-based
measurement-conditions: Hepatitis C virus, 72 h, read-out: EC50 1A R155K
metric-name: EC50 (µM)
Numbers only, in µM.

# compound, metric-name, reported-result
rows = [
    ("COc1ccc2nc3c(nc2c1)O[C@H]1CN(C(=O)[C@H](C(C)(C)C)NC(=O)O[C@@H]2C[C@H]2CCCCC3)[C@H](C(=O)N[C@]2(C(=O)NS(=O)(=O)C3(C)CC3)C[C@H]2C(F)F)[C@@H]1C1CC1", "EC50", 0.154),
]

// for each compound in input: emit EC50
1. C[C@@H]1[C@@H]2CN(C(=O)[C@H](C(C)(C)C)NC(=O)O[C@@H]3C[C@H]3CCCCC(F)(F)c3nc4ccc(Cl)cc4nc3O2)[C@@H]1C(=O)N[C@]1(C(=O)NS(=O)(=O)C2(C)CC2)C[C@H]1C(F)F
2. CC[C@@H]1[C@@H]2CN(C(=O)[C@H](C3CCCCC3)NC(=O)O[C@@H]3C[C@H]3CCCCCc3nc4ccc(OC)cc4nc3O2)[C@@H]1C(=O)N[C@]1(C(=O)NS(=O)(=O)C2(C)CC2)C[C@H]1C(F)F
3. COc1ccc2nc3c(nc2c1)O[C@H]1CN(C(=O)[C@H](C(C)(C)C)NC(=O)O[C@@H]2C[C@H]2CCCCC3F)[C@H](C(=O)N[C@]2(C(=O)NS(=O)(=O)C3(C)CC3)C[C@H]2C(F)F)[C@@H]1C (stereo partly shown)

A)
1. 0.014
2. 0.022
3. 0.0061
